# System name: EPAC2 (Mus musculus, UniProt Q9EQZ6)
# Protocol notes: 8-NBD-cAMP competition assay
# Experimental setup: vs compound 8
Readout type: fold increase in potency compared to nonsubstituted analogue 8

{"columns": ["Structure as smiles", "System name", "Reported"],
 "data": [
  ["CC(C)(C)c1cc(C(=O)/C(C#N)=N/Nc2cccc([N+](=O)[O-])c2)no1", "EPAC2 (Mus musculus, UniProt Q9EQZ6)", "about 2 fold"],
  ["CC(C)(C)c1cc(C(=O)/C(C#N)=N/Nc2cccc(Br)c2)no1", "EPAC2 (Mus musculus, UniProt Q9EQZ6)", "3–4 fold"],
  ["CC(C)(C)c1cc(C(=O)/C(C#N)=N/Nc2cccc(F)c2)no1", "EPAC2 (Mus musculus, UniProt Q9EQZ6)", "3–4 fold"],
  ["Cc1cccc(N/N=C(\\C#N)C(=O)c2cc(C(C)(C)C)on2)c1", "EPAC2 (Mus musculus, UniProt Q9EQZ6)", "about 2 fold"]
]}

====

# System name: EPAC2 (Mus musculus)
# Sequence (Q9EQZ6 1-993 isoform Q9EQZ6-3): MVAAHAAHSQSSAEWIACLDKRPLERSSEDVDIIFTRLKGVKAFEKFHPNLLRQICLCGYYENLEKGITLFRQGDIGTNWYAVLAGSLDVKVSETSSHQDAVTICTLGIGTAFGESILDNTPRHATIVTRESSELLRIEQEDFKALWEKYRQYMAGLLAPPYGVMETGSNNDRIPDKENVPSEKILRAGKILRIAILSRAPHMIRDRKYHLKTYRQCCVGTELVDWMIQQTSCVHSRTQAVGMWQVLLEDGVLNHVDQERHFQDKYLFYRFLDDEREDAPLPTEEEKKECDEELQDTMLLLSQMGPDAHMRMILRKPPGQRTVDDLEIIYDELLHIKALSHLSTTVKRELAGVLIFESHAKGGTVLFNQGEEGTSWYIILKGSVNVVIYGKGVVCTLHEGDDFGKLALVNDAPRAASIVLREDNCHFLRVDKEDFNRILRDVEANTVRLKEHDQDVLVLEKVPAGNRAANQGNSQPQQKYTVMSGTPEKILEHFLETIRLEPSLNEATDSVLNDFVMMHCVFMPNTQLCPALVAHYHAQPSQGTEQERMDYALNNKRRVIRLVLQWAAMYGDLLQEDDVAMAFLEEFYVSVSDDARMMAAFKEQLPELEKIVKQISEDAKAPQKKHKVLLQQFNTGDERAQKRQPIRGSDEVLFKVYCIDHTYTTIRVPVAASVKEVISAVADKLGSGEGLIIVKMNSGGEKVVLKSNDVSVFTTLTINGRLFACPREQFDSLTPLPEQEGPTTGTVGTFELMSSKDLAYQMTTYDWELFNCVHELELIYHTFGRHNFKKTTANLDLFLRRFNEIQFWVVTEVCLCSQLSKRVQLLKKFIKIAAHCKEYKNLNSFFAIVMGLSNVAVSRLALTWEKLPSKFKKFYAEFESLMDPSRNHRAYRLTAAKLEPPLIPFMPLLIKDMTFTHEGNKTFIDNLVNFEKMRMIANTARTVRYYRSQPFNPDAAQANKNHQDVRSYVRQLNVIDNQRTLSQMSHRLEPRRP
# Protocol notes: 8-NBD-cAMP competition assay
# Experimental setup: 8-NBD-cAMP competition

{"columns": ["Structure as smiles", "EPAC2 binding activity in words"],
 "data": [
  ["N#C/C(=N\\Nc1cc(Cl)c(Cl)c(Cl)c1)C(=O)c1cc(-c2ccccc2)on1", "totally inactive"],
  ["CC(C)(C)c1cc(NC(=O)C(C#N)=NNc2cccc(Cl)c2)no1", "completely inactive"],
  ["N#C/C(=N\\Nc1cccc(Cl)c1)C(=O)c1cc(-c2ccccc2)on1", "totally inactive"],
  ["Cc1cc(NC(=O)C(C#N)=NNc2cccc(Cl)c2)no1", "completely inactive"]
]}
